System: HCT-15 colon
test-description: NCI-60 one-dose screen, 48 h
condition-details: 10 µM unless noted
About 83,000 compounds went through this panel and 20% of them were active in at least one assay; those are over-represented in the sample as a whole. Activity calls are given as the source filed them. Rule for the calls: active = growth percent below 10; inactive = the rest.
Outcome codes: true for active, false for inactive

molecule | target-under-test | label-class
O=S(=O)(Nc1ncccn1)c1ccc(Nc2ccc3nnc(-c4ccncc4)n3n2)cc1 | HCT-15 colon | false
CCCCCCCC/C=C\CCCCCCCCOc1cccc(CC(=O)NCC[N+]2(C)CCCC2)c1 | HCT-15 colon | false
OC[C@@H](O)[C@@H](O)CO | HCT-15 colon | false
O=c1onc(-c2ccccc2)c2ccccc12 | HCT-15 colon | false
Clc1ccc(C2=Nc3cccc4cccc(c34)N2)cc1Cl | HCT-15 colon | false
O=C1/C(=C/c2ccc(F)cc2)CN(Cc2cn(CCNc3ccnc4cc(Cl)ccc34)nn2)C/C1=C\c1ccc(F)cc1 | HCT-15 colon | true
COc1ccc(S(=O)(=O)ON=C2C=C(C)C(=O)C(C)=C2)cc1 | HCT-15 colon | false
O=C1C(Cl)=C(NCCCN2CCOCC2)C(=O)c2ccccc21 | HCT-15 colon | false
CC1(C)N=C(N)N=C(N)N1c1cccc(OCCOc2cccc([N+](=O)[O-])c2)c1 | HCT-15 colon | false
C=C1CC[C@@H]2[C@@](C)(CCC[C@]2(C)C(=O)O)[C@@H]1CC[C@H](CO)CCO | HCT-15 colon | false
COc1cc(C(=O)N(C(C)C)C2CCCCC2)cc(OC)c1OC | HCT-15 colon | false
CCCCc1ccc(C(O)(CCN2CC3CCC(CC3)C2)c2ccccc2)cc1 (stereo not given) | HCT-15 colon | false
Cc1ccc(S(=O)(=O)N2C/C(=C\c3cc(F)cc(F)c3)C(=O)/C(=C/c3cc(F)cc(F)c3)C2)cc1 | HCT-15 colon | true
c1ccc2cc(-c3n(Cc4ccc5ccccc5n4)c4ccccc4[n+]3Cc3ccc4ccccc4n3)ccc2c1 | HCT-15 colon | false
Cc1c(C(=O)Nc2nc(-c3ccccc3)cs2)nnn1-c1cccc2ccccc12 | HCT-15 colon | false
O=S(=O)(/N=C1C=C/C(=N\S(=O)(=O)c2ccccc2)c2ccccc2\1)c1ccccc1 | HCT-15 colon | false
c1ccc2cc(Cn3c(-c4ccc5ccccc5c4)[n+](Cc4ccc5ccccc5c4)c4ccccc43)ccc2c1 | HCT-15 colon | true
COC(=O)[C@@]12CC[C@@H](C)[C@]3(C[C@@H](c4ccoc4)OC3=O)[C@H]1CC[C@@H]1O[C@@]12C | HCT-15 colon | false
O=c1[nH]c(-c2ccncc2)nc2sc3c(c12)CCCCCC3 | HCT-15 colon | false
N#C/C(=C\c1ccc[nH]1)c1cc2ccccc2[nH]1 | HCT-15 colon | false
